# systemName: recombinant homotrimeric HA A/chicken/Vietnam/NCVD-016/08 H5N1 (Influenza A virus A/chicken/Vietnam/NCVD-016/2008(H5N1))
# protocolNotes: protein microarray, purified IgG, trimeric HA
# measurementContext: remark: other sources report otherwise
The entries below are paired with their reported Trimeric HA Binding: RLU.
readoutType: Trimeric HA Binding: RLU

binder	val
TCN-530 (5248_H10a) (antibody, V domains shown) VH: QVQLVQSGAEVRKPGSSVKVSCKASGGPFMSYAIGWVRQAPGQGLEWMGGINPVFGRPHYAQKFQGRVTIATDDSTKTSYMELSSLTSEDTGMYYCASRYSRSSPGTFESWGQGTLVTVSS VL: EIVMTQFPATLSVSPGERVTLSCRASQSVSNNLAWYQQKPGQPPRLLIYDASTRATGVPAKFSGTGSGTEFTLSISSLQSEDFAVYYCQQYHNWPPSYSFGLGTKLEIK	2050 RLU
TCN-535 (5246_P19) (antibody, V domains shown) VH: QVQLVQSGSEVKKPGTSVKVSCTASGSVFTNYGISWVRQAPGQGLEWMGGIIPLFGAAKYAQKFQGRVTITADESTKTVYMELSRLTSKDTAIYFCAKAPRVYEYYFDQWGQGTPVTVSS VL: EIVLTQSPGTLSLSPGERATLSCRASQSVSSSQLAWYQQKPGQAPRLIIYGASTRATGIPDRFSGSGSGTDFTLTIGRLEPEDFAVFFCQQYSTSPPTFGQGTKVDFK	2630 RLU
